Values compiled from ChEMBL document CHEMBL1137339.

- System: HCT-15
- measurementNotes: Cytotoxicity against doxorubicin-resistant HCT15 cell line in presence of verapamil by WST1 assay
- Assay type: functional, cell-based
- settings: Homo sapiens
valueKind: pIC50
Please keep in mind that pIC50 is minus log10 of the molar concentration; only the number is needed.

Tested on HCT-15: COc1cccc2c1C(=O)c1c(O)c3c(c(O)c1C2=O)C[C@@](O)(C(=O)CO)C[C@@H]3O[C@H]1C[C@H](N)[C@H](O)[C@H](C)O1.O=C(O)C(F)(F)F [DOXORUBICIN TRIFLUOROACETATE] . Observed pIC50: 4.70

----------
- Tested on: NCI/ADR-RES
- measurementNotes: Cytotoxicity against doxorubicin-resistant MCF7/Adr cell line in presence of verapamil by WST1 assay
- Assay type: functional, cell-based
- settings: Homo sapiens
valueKind: pIC50
Please keep in mind that pIC50 is minus log10 of the molar concentration; only the number is needed.

Tested on NCI/ADR-RES: COc1cccc2c1C(=O)c1c(O)c3c(c(O)c1C2=O)C[C@@](O)(C(=O)CO)C[C@@H]3O[C@H]1C[C@H](N)[C@H](O)[C@H](C)O1.O=C(O)C(F)(F)F [DOXORUBICIN TRIFLUOROACETATE] . Observed pIC50: 4.52
